Target: T1, GFP-9S library array, motif 4 ND N98W;D124P (synthetic construct, N98W;D124P)
T1 chain: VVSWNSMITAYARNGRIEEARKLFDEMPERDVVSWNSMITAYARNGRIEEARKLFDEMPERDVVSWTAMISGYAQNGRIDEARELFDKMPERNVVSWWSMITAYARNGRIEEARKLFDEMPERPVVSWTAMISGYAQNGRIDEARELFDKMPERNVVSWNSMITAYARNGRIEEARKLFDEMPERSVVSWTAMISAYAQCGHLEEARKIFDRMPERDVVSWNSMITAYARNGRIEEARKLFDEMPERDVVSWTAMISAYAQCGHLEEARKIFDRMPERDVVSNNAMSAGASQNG
Assay: high-throughput RNA pulldown from lysate on Ni-NTA beads; HRP: 50 mM Tris pH 8, 150 mM NaCl, 1 mM beta-mercaptoethanol, 50 ug/ml BSA, 3 ug/ml yeast RNA, 0.5% heparin; ITC and FP: Tris pH 8, 200 mM KCl, 5% glycerol; MST: 50 mM Tris pH 8, 200 mM NaCl, 1 mM DTT, BSA, heparin, 0.05% Tween 20
Conditions: tags: N-terminal His-eGFP; label: 5' IRDye 800CW
Entries and their Kd values follow.
# number only, unit nM dropped from output

>  <BINDER>
AUUAUACGUGA (ssRNA) [IR-rpoA-U]

>  <Kd, nM>
526

$$$$

Sample AUUAAACGUGA (ssRNA) [IR-rpoA-A] ; Kd observed: 579
